test system: KHOS-240S; assay: standardised AUC of viability dose-response curve (72 h) (fraction (0-1)); higher = less growth inhibition (more resistant)
Endpoint label: standardised AUC
One number for each entry.

Some solved entries appear below for comparison.
CCN(c1cc(-c2ccc(CN3CCOCC3)cc2)cc(C(=O)NCc2c(C)cc(C)[nH]c2=O)c1C)C1CCOCC1    0.971
C[C@@H]1COC(Nc2ccc3ncnc(Nc4ccc(OCc5nccs5)c(Cl)c4)c3c2)=N1    0.975
CN1CCN(CCOc2cc(OC3CCOCC3)c3c(Nc4c(Cl)ccc5c4OCO5)ncnc3c2)CC1    0.884

Req: What value of standardised AUC has been reported for the following compound? COc1cc(OC)cc(N(CCNC(C)C)c2ccc3ncc(-c4cnn(C)c4)nc3c2)c1
Resp: 0.773
